The measurements presented in this section are drawn from patent US10023564B2.

Assayed target: ROCK1 (Homo sapiens (Human), UniProt Q13464)
Sequence (Q13464 whole entry, species assumed): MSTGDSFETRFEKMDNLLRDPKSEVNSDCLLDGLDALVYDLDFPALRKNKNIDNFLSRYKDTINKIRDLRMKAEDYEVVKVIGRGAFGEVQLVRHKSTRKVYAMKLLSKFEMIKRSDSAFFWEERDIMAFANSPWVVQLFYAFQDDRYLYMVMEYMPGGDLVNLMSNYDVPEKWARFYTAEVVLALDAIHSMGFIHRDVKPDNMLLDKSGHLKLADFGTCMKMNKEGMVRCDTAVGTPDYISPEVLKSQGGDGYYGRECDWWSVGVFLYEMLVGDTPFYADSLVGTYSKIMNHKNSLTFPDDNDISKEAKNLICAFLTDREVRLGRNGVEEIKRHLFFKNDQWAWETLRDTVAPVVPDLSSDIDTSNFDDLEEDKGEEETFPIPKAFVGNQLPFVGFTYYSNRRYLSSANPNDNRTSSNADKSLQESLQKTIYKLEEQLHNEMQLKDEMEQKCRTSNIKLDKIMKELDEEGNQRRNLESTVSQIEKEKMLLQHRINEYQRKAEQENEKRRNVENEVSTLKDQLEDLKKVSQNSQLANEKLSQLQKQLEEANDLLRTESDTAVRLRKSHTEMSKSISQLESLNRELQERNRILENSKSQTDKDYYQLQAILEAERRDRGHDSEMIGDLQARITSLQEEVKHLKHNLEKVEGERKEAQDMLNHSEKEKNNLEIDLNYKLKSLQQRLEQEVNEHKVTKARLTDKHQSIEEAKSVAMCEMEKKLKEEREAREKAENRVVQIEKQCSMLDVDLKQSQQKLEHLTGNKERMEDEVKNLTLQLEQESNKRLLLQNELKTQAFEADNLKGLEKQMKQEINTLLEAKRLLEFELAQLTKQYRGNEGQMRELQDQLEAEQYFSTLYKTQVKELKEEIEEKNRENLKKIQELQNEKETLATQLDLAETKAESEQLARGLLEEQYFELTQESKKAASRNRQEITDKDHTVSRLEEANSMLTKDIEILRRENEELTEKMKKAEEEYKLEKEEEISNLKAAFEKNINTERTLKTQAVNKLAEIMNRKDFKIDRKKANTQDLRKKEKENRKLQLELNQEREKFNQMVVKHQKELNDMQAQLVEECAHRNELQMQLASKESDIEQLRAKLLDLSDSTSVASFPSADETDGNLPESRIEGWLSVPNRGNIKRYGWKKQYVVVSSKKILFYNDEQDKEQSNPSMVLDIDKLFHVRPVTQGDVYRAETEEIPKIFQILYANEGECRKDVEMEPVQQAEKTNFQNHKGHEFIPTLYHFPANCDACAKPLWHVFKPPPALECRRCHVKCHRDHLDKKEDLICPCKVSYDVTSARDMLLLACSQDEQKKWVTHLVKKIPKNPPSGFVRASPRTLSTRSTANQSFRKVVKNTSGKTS
Readout: IC50 (nM)

Consider the following illustrative entries.
CC1=C(C(=O)Nc2ccc3[nH]ncc3c2)C(c2ccc(F)c(C(=O)NCc3nccc4ccccc34)c2)NC(=O)N1 (stereo not drawn) | 17
CC1=C(C(=O)Nc2ccc3[nH]ncc3c2)C(c2ccc(F)c(C(=O)NCCc3c(C)cccc3C)c2)NC(=O)N1 (stereo not drawn) | 290

A. CC1=C(C(=O)Nc2ccc3[nH]ncc3c2)C(c2ccc(F)cc2)NC(=O)N1 (stereo not drawn) [GSK180736A, reference compound]
B. CC1=C(C(=O)Nc2ccc3[nH]ncc3c2)C(c2ccc(F)c(CC(=O)NCc3c(C)cccc3C)c2)NC(=O)N1 (stereo not drawn)
C. CC1=C(C(=O)Nc2ccc3[nH]ncc3c2)C(c2ccc(F)c(C(=O)NCc3ccccn3)c2)NC(=O)N1 (stereo not drawn)
D. CC1=C(C(=O)Nc2ccc3[nH]ncc3c2)C(c2ccc(F)c(C(=O)NCc3ncccc3C)c2)NC(=O)N1 (stereo not drawn)
**Query** Arrange the 4 entries by IC50 so the values rise. # the answer lists labels in the order requested
**Result** C, A, D, B
(C: 11 nM, A: 78 nM, D: 150 nM, B: 450 nM)

---

Assayed target: UniProtKB P25098
Sequence (P25098 whole entry, species assumed): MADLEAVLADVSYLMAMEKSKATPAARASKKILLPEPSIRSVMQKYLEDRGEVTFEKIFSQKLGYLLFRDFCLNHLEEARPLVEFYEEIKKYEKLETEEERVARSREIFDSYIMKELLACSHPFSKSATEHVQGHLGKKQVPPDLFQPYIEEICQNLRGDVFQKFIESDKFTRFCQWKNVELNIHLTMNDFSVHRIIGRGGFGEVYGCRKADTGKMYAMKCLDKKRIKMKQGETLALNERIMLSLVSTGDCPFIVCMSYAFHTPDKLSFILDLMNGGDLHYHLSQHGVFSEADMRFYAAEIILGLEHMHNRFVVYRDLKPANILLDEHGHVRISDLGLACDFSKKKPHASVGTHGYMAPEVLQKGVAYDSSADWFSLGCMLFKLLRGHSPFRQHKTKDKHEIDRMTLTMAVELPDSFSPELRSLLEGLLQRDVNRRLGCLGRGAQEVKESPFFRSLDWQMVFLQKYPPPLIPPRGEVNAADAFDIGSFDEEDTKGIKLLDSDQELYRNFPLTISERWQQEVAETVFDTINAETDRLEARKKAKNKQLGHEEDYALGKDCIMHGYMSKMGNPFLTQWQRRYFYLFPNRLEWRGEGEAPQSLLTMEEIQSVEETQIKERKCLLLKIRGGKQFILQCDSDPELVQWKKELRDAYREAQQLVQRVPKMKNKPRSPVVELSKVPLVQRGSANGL
pIC50: −log10 of the molar value.
Readout: pIC50

Consider the following illustrative entries.
CC1=C(C(=O)Nc2ccc3[nH]ncc3c2)C(c2ccc(F)c(CCC(=O)NCCc3ccccc3)c2)NC(=O)N1 (centres unmarked) | 5.15
CC1=C(C(=O)Nc2ccc3[nH]ncc3c2)C(c2ccc(F)c(CC(=O)N3CCOC(CCO)C3)c2)NC(=O)N1 (centres unmarked) | 5.82
CC1=C(C(=O)Nc2ccc3[nH]ncc3c2)C(c2ccc(F)c(CCC(=O)NCc3ncc(C)o3)c2)NC(=O)N1 (centres unmarked) | 5.40
CC1=C(C(=O)Nc2ccc3[nH]ncc3c2)C(c2ccc(F)c(CC(=O)N(C)Cc3nc(C)c[nH]3)c2)NC(=O)N1 (centres unmarked) | 5.92
CC1=C(C(=O)Nc2ccc3[nH]ncc3c2)C(c2ccc(F)c(C(=O)N(C)CC3CCCCO3)c2)NC(=O)N1 (centres unmarked) | 4.84
CC1=C(C(=O)Nc2ccc3[nH]ncc3c2)C(c2ccc(F)c(C(=O)NC3CC4CCC3(C)C4(C)C)c2)NC(=O)N1 (centres unmarked) | 5.28

1. C#CCN(Cc1ccco1)C(=O)Cc1cc(C2NC(=O)NC(C)=C2C(=O)Nc2ccc3[nH]ncc3c2)ccc1F (centres unmarked)
2. CC1=C(C(=O)Nc2ccc3[nH]ncc3c2)C(c2ccc(F)c(C(=O)NCc3c(F)cccc3F)c2)NC(=O)N1 (centres unmarked)
**Query** Which value of pIC50 is numerically greater: that of 1 or that of 2 ? Respond with the label that goes with your answer.
**Result** 2
(2: 6.92, 1: 6.02)

---

The following compounds have recorded IC50 on ROCK1 (Homo sapiens (Human), UniProt Q13464).

Consider the following illustrative entries.
COc1cccc(OC)c1CNC(=O)c1cc(C2NC(=O)NC(C)=C2C(=O)Nc2ccc3[nH]ncc3c2)ccc1F (stereo not drawn) | > 10 µM
CC1=C(C(=O)Nc2ccc3[nH]ncc3c2)C(c2ccc(F)c(C(=O)NCCc3ccncc3)c2)NC(=O)N1 (stereo not drawn) | > 100 µM

**Query** Query IC50 on ROCK1 (Homo sapiens (Human), UniProt Q13464) for CC1=C(C(=O)Nc2ccc3[nH]ncc3c2)C(c2ccc(F)c(C(=O)NCc3c(C(F)(F)F)cccc3C(F)(F)F)c2)NC(=O)N1 (stereo not drawn)
**Result** > 10 µM
